Data origin, for the record: PubChem BioAssay (NCI)

Tested on: MOLT-4 leukemia
experimental-details: NCI tumour cell line growth inhibition, 48 h; in the data active means GI50 below about 0.43 µM; inactive means the rest
Please answer using one outcome listed in active, inactive

Query: For O=C(NN1C(=O)CSC1c1cccc(Cl)c1)C(O)c1ccccc1 (stereo not given) , what call appears in the results of this test?
Reply: inactive

Query: For `Cc1cn(-c2cccc(NC(=O)c3ccc(C)c(Nc4nccc(-c5cccnc5)n4)c3)c2)cn1` , what call appears in the results of this test?
Reply: inactive

Query: For COc1cc(F)ccc1-c1cc(Nc2cc(CS(C)(=N)=O)ccn2)ncc1F (stereo not given) , what call appears in the results of this test?
Reply: active

Query: For `CCOc1cc(/C=C/C(=O)C(C(=O)/C=C/c2ccc(OC(=O)CNc3nc4ccccc4[nH]3)c(OCC)c2)C(=O)CNc2nc3ccccc3[nH]2)ccc1OC(=O)CNc1nc2ccccc2[nH]1` , what call appears in the results of this test?
Reply: inactive

Query: For `CCCCCCCCCc1ccc(OCCOCCOCCOCCOCCOCCOCCOCCOCCO)cc1` , what call appears in the results of this test?
Reply: inactive

Query: For `COc1ccc(-c2cnnn2-c2nonc2-n2cccc2)cc1OC` , what call appears in the results of this test?
Reply: inactive

Query: For `N=c1ccc2nc3ccc(N)cc3sc-2c1` , what call appears in the results of this test?
Reply: inactive

Query: For `CCn1cc(/C=C2\Oc3cc(OCC#N)ccc3C2=O)c2cc(OC)ccc21` , what call appears in the results of this test?
Reply: active

Others:
Query: For `Cc1ccc(S(=O)(=O)c2nc(-c3ccccc3)oc2S(C)(=O)=O)cc1` , what call appears in the results of this test?
Reply: inactive

Query: For COc1cccc(CNc2ncnc3c2ncn3C2OC(CO)C(O)C2O)c1O (stereo not given) , what call appears in the results of this test?
Reply: active
